assay: in vivo; settings: male, beagle, dog, iv, 1 mg/kg
PARAMETER: MRT (h)
Numbers only here, please. The scale is h.

Qu. Please report the measured MRT for COc1cc(O)c(C(=O)[C@@H]2[C@H](CC=C(C)C)C(C)=CC[C@H]2c2ccccc2)c(O)c1
Ans. 23.9

====

assay: in vivo; details: male, beagle, dog, iv, 1 mg/kg
PARAMETER: concentration at 72 h

Qu. Please report the measured concentration at 72 h for COc1cc(O)c(C(=O)[C@@H]2[C@H](CC=C(C)C)C(C)=CC[C@H]2c2ccccc2)c(O)c1
Ans. 100 to 200 ng/mL
